All figures here come from PubChem BioAssay (NCI).

# ASSAY_NOTES: NCI Yeast Anticancer Drug Screen. Data for the cln2 rad14 strain (AID 165);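 further: 0% = growth equal to vehicle treated cultures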
# TEST_CONTEXT: S. cerevisiae cln2 rad14 strain, at 5.0 µM (retest, dose inferred, filed as 0.5), stronger effect = higher value
About 79,000 compounds went through this panel and 15% of them were active in at least one assay; those are over-represented in the sample as a whole.
READOUT_NAME: growth inhibition (%)
Write it as a number; the unit % goes unstated.

Worked set:
stdin: Item under review: Cc1ccc(C)c(NC(=O)CC2SC(=Nc3ccccc3Cl)NC2=O)c1 (stereo not given) . Reported growth inhibition?
stdout: 23

stdin: I would be grateful if you could share the reported growth inhibition for c1cc(C2=NCCN2)ccc1Nc1ccc(-c2cc3ccc(C4=NCCN4)cc3[nH]2)cc1 .
stdout: 99

stdin: Form field: reported growth inhibition of COC(=O)c1[nH]c(=O)c(C#N)c(C(=O)OC)c1C(=O)c1ccc(Cl)c(Cl)c1
stdout: 3

stdin: Bench note: what growth inhibition did N#Cc1snc2sc(=O)sc12 show?
stdout: 99

stdin: Give the measured growth inhibition of O=C(C[n+]1ccc2ccccc2c1)c1ccc(-c2ccccc2)cc1 .
stdout: -4

Others:
stdin: What does the data say about its growth inhibition? Entry: C=C/C=C/CC=C
stdout: -45

stdin: Given the molecule O=C1CSC(c2cccc([N+](=O)[O-])c2)N1c1ccc(-c2ccc(-n3c(-c4ccccc4)nc4ccccc4c3=O)cc2)cc1 (stereo not given) , what is its reported growth inhibition?
stdout: 26

stdin: Sample CC1CC(C)CC(NC2=NCCO2)C1 (stereo not given) — what was its growth inhibition?
stdout: 11

stdin: Quick one: growth inhibition for CCOC(=O)/C(=C\c1ccc(-c2ccccc2)cc1)C(C)=O ?
stdout: 1

stdin: Which growth inhibition reading was recorded for the molecule CCC(c1cccc(O)c1)C(CC)c1cccc(O)c1 (stereo not given) ?
stdout: 50

stdin: Quick check: growth inhibition of O=C(CNC(=O)C(CSCc1ccccc1)NC(=O)OCc1ccccc1)Oc1c(Cl)c(Cl)c(Cl)c(Cl)c1Cl (stereo not given) ?
stdout: 3
